Below, each entry is listed alongside its reported concentration at 10 min.
experiment: In-vivo absorbency (plasma concentrations & pharmacokinetic parameters); parameters: species or system SD rat (male); conditions: plasma; 10 min; SD male rat, iv 20 mg/kg; read-out: Plasma Conc.
Reply with just the number (in ng/mL).

CCO/N=C(\C(=O)NC1C(=O)N2C(C(=O)[O-])=C(CSc3nc(N)cc(N)[n+]3N)CSC12)c1csc(N)n1 (stereo not drawn)	52000

Specify measured concentration at 10 min for CC[n+]1c(SCC2=C(C(=O)[O-])N3C(=O)C(NC(=O)/C(=N\OC(C)(C)C(=O)O)c4csc(N)n4)C3SC2)nc(N)c(C)c1N (stereo not drawn) .
35000

Specify measured concentration at 10 min for CC[n+]1c(N)cc(N)nc1SCC1=C(C(=O)[O-])N2C(=O)C(NC(=O)/C(=N\OC(C)(C)C(=O)O)c3csc(N)n3)C2SC1 (stereo not drawn) .
14000

Specify measured concentration at 10 min for CCc1c(N)nc(SCC2=C(C(=O)[O-])N3C(=O)C(NC(=O)/C(=N\OC(C)(C)C(=O)O)c4csc(N)n4)C3SC2)[n+](C)c1N (stereo not drawn) .
45000

Specify measured concentration at 10 min for C[n+]1c(N)cc(N)nc1SCC1=C(C(=O)[O-])N2C(=O)C(NC(=O)/C(=N\OCC(=O)O)c3csc(N)n3)C2SC1 (stereo not drawn) .
43000

Specify measured concentration at 10 min for CC[n+]1c(N)cc(N)nc1SCC1=C(C(=O)[O-])N2C(=O)C(NC(=O)/C(=N\OC(C)C(=O)O)c3csc(N)n3)C2SC1 (stereo not drawn) .
49000

---

experiment: In-vivo absorbency (plasma concentrations & pharmacokinetic parameters); parameters: species or system SD rat (male); conditions: plasma; 40 min; SD male rat, iv 20 mg/kg; read-out: Plasma Conc.
Endpoint label: concentration at 40 min (ng/mL)
Reply with just the number (in ng/mL).

CCc1c(N)nc(SCC2=C(C(=O)[O-])N3C(=O)C(NC(=O)/C(=N\OC(C)(C)C(=O)O)c4csc(N)n4)C3SC2)[n+](CC)c1N (stereo not drawn)	13000
CC[n+]1c(N)cc(N)nc1SCC1=C(C(=O)[O-])N2C(=O)C(NC(=O)/C(=N\OC(C)C(=O)O)c3csc(N)n3)C2SC1 (stereo not drawn)	13000

Specify measured concentration at 40 min for CC(O/N=C(\C(=O)NC1C(=O)N2C(C(=O)[O-])=C(CSc3nc(N)cc(N)[n+]3C)CSC12)c1csc(N)n1)C(=O)O (stereo not drawn) .
4500

---

assay: In-vivo absorbency (plasma concentrations & pharmacokinetic parameters); parameters: species or system SD rat (male); settings: plasma; 1 min; SD male rat, iv 20 mg/kg; read-out: Plasma Conc.
Endpoint label: concentration at 1 min (µg/mL)
Reply with just the number (in µg/mL).

Cc1c(N)nc(SCC2=C(C(=O)[O-])N3C(=O)C(NC(=O)/C(=N\OC(C)(C)C(=O)O)c4csc(N)n4)C3SC2)[n+](C)c1N (stereo not shown) [Compound I-30]	148
CC[n+]1c(N)cc(N)nc1SCC1=C(C(=O)[O-])N2C(=O)C(NC(=O)/C(=N\OCC(=O)O)c3csc(N)n3)C2SC1 (stereo not shown) [Compound I-8]	121

Specify measured concentration at 1 min for CCC[n+]1c(N)cc(N)nc1SCC1=C(C(=O)[O-])N2C(=O)C(NC(=O)/C(=N\OC(C)C(=O)O)c3csc(N)n3)C2SC1 (stereo not shown) [Compound I-45] .
147

Specify measured concentration at 1 min for C[n+]1c(N)cc(N)nc1SCC1=C(C(=O)[O-])N2C(=O)C(NC(=O)/C(=N\OCC(=O)O)c3csc(N)n3)C2SC1 (stereo not shown) [Compound I-7] .
128

---

Below, each entry is listed alongside its reported MIC.
system: Bacillus megaterium ATCC 9885; test: Antibacterial activity, MIC; format: cell-based; conditions: Priestia megaterium, ATCC9885; ATCC 9885; agar two-fold dilution, 37° C., 20 hours; read-out: MIC
Reply with just the number (in µg/mL).

Solved entries (count: 10):
C=CCO/N=C(\C(=O)NC1C(=O)N2C(C(=O)[O-])=C(CSc3nc(N)cc(N)[n+]3CC)CSC12)c1csc(N)n1 (stereo not drawn)	0.13
C#CCO/N=C(\C(=O)NC1C(=O)N2C(C(=O)[O-])=C(CSc3nc(N)cc(N)[n+]3C)CSC12)c1csc(N)n1 (stereo not drawn)	0.063
CCO/N=C(\C(=O)NC1C(=O)N2C(C(=O)[O-])=C(CSc3nc(N)cc(N)[n+]3N)CSC12)c1nsc(N)n1 (stereo not drawn)	0.13
CC[n+]1c(N)cc(N)nc1SCC1=C(C(=O)[O-])N2C(=O)C(NC(=O)/C(=N\OC(C)(C)C(=O)O)c3nsc(N)n3)C2SC1 (stereo not drawn)	1
CC(C)(O/N=C(\C(=O)NC1C(=O)N2C(C(=O)[O-])=C(CSc3nc(N)cc(N)[n+]3-c3ccccc3)CSC12)c1csc(N)n1)C(=O)O (stereo not drawn)	0.5
CCO/N=C(\C(=O)NC1C(=O)N2C(C(=O)[O-])=C(CSc3nc(N)cc(N)[n+]3C)CSC12)c1csc(N)n1 (stereo not drawn)	0.13
CC[n+]1c(N)cc(N)nc1SCC1=C(C(=O)[O-])N2C(=O)C(NC(=O)/C(=N\OCC(=O)O)c3csc(N)n3)C2SC1 (stereo not drawn)	0.5
C[n+]1c(N)cc(N)nc1SCC1=C(C(=O)[O-])N2C(=O)C(NC(=O)/C(=N\OCC(=O)O)c3csc(N)n3)C2SC1 (stereo not drawn)	0.5
CCCC[n+]1c(N)cc(N)nc1SCC1=C(C(=O)[O-])N2C(=O)C(NC(=O)/C(=N\OC(C)(C)C(=O)O)c3nsc(N)n3)C2SC1 (stereo not drawn)	0.25
C[n+]1c(N)cc(N)nc1SCC1=C(C(=O)[O-])N2C(=O)C(NC(=O)/C(=N\OC(C)(C)C(=O)O)c3csc(N)n3)[C@H]2SC1 (stereo partly drawn)	0.25

Specify measured MIC for CC(C)(O/N=C(\C(=O)NC1C(=O)N2C(C(=O)[O-])=C(CSc3nc(N)cc(N)[n+]3-c3ccc(O)cc3)CSC12)c1csc(N)n1)C(=O)O (stereo not drawn) .
0.13

Specify measured MIC for C=CC[n+]1c(N)cc(N)nc1SCC1=C(C(=O)[O-])N2C(=O)C(NC(=O)/C(=N\OCC)c3nsc(N)n3)C2SC1 (stereo not drawn) .
0.25

---

test: In-vivo absorbency (plasma concentrations & pharmacokinetic parameters); set-up: species or system SD rat (male); conditions: rat, plasma, iv, 20 mg/kg, SD male rat, iv 20 mg/kg; two compartment model; read-out: T1/2 (α)
Below, each entry is listed alongside its reported half-life.
Reply with just the number (in min).

Solved entries (count: 4):
CC[n+]1c(N)cc(N)nc1SCC1=C(C(=O)[O-])N2C(=O)C(NC(=O)/C(=N\OC(C)(C)C(=O)O)c3csc(N)n3)C2SC1 (centres unmarked) [Compound I-2]	2
Cc1c(N)nc(SCC2=C(C(=O)[O-])N3C(=O)C(NC(=O)/C(=N\OC(C)(C)C(=O)O)c4csc(N)n4)C3SC2)[n+](C)c1N (centres unmarked) [Compound I-30]	4
CC(C)(O/N=C(\C(=O)NC1C(=O)N2C(C(=O)[O-])=C(CSc3nc(N)cc(N)[n+]3N)CS[C@H]12)c1csc(N)n1)C(=O)O (some centres unmarked) [Compound I-15]	3
CC[n+]1c(N)cc(N)nc1SCC1=C(C(=O)[O-])N2C(=O)C(NC(=O)/C(=N\OC(C)C(=O)O)c3csc(N)n3)C2SC1 (centres unmarked) [Compound I-5]	5

Lab note: next compound to report on.
Specify measured half-life for CCc1c(N)nc(SCC2=C(C(=O)[O-])N3C(=O)C(NC(=O)/C(=N\OC(C)(C)C(=O)O)c4csc(N)n4)C3SC2)[n+](C)c1N (centres unmarked) [Compound I-31] .
6

---

Test system Escherichia coli ATCC 10536, MIC listed for each of the compounds.
Reply with just the number (in µg/mL).

Solved entries (count: 2):
CCC[n+]1c(N)cc(N)nc1SCC1=C(C(=O)[O-])N2C(=O)C(NC(=O)/C(=N\OC(C)(C)C(=O)O)c3nsc(N)n3)C2SC1 (stereo not drawn)	0.13
CC(O/N=C(\C(=O)NC1C(=O)N2C(C(=O)[O-])=C(CSc3nc(N)cc(N)[n+]3C)CSC12)c1csc(N)n1)C(=O)O (stereo not drawn)	0.063

Lab note: next compound to report on.
Give measured MIC for CC(C)(O/N=C(\C(=O)NC1C(=O)N2C(C(=O)[O-])=C(CSc3nc(N)cc(N)[n+]3C3CC3)CSC12)c1csc(N)n1)C(=O)O (stereo not drawn) (Escherichia coli ATCC 10536).
0.13

---

Below, each entry is listed alongside its reported MIC50.
system: Staphylococcus aureus methicillin susceptible; assay: Antibacterial activity against clinically isolated strains, MIC; format: cell-based; settings: methicillin susceptible, 42 clinical isolates, broth microdilution test
Give the figure together with its unit, number first.

Solved entries (count: 2):
CC(O/N=C(\C(=O)NC1C(=O)N2C(C(=O)[O-])=C(CSc3nc(N)cc(N)[n+]3N)CSC12)c1csc(N)n1)C(=O)O (stereo not drawn)	4 µg/mL
C#CCO/N=C(\C(=O)NC1C(=O)N2C(C(=O)[O-])=C(CSc3nc(N)cc(N)[n+]3C)CSC12)c1csc(N)n1 (stereo not drawn)	0.25 µg/mL

Specify measured MIC50 for C[n+]1c(N)cc(N)nc1SCC1=C(C(=O)[O-])N2C(=O)C(NC(=O)/C(=N\OCC(=O)O)c3csc(N)n3)C2SC1 (stereo not drawn) .
4 µg/mL

The measured values listed here are drawn from patent US5202315A.
